target: BTK(C481S)-GFP (Homo sapiens, UniProt Q06187+Q96SW2, C481S); construct: CHYSEL (cis-acting hydrolase element, 2A) remnant after GFP; mCherry is split off as a separate protein (C); expressed in transfected cells; host or cells: TMD8 cells, lentiviral transduction with pLenti6-BTK(C481S)-GFP-CHYSEL-mCherry; assay: BTK(C481S)-GFP protein abundance flow cytometry assay in TMD8 cells; type: cell-based; details: TMD8 cells expressing BTK(C481S)-GFP, GFP signal by flow cytometry
Sequence (Q06187 whole entry C481S): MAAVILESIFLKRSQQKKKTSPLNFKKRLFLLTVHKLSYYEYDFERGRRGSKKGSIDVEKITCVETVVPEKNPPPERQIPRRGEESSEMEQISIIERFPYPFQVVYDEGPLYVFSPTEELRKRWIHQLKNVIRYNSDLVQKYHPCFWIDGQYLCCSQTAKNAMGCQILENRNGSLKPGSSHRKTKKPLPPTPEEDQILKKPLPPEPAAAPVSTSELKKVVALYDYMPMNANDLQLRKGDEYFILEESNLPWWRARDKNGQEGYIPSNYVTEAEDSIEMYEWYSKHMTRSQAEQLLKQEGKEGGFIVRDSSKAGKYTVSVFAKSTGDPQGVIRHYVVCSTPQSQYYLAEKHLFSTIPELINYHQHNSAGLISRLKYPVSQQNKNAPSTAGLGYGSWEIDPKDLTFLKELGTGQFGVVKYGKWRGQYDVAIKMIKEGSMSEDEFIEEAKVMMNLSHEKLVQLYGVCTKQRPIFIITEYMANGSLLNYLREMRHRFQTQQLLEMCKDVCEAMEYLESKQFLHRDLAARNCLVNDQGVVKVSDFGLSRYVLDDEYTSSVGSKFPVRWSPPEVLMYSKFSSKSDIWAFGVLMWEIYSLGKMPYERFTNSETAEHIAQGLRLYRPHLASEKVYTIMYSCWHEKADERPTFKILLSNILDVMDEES
Sequence (Q96SW2 whole entry): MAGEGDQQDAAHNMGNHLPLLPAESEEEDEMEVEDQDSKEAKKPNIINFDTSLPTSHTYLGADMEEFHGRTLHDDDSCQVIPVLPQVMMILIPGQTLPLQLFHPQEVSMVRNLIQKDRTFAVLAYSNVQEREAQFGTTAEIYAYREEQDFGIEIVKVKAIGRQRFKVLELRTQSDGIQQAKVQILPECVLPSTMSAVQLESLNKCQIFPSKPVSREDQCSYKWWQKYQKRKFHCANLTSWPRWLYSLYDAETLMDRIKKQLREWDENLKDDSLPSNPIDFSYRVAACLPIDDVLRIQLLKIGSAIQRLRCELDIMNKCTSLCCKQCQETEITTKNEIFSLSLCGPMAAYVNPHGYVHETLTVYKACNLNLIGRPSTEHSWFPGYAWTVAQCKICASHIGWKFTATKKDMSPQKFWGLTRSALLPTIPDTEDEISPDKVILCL
Sequence (Q16531 whole entry partner): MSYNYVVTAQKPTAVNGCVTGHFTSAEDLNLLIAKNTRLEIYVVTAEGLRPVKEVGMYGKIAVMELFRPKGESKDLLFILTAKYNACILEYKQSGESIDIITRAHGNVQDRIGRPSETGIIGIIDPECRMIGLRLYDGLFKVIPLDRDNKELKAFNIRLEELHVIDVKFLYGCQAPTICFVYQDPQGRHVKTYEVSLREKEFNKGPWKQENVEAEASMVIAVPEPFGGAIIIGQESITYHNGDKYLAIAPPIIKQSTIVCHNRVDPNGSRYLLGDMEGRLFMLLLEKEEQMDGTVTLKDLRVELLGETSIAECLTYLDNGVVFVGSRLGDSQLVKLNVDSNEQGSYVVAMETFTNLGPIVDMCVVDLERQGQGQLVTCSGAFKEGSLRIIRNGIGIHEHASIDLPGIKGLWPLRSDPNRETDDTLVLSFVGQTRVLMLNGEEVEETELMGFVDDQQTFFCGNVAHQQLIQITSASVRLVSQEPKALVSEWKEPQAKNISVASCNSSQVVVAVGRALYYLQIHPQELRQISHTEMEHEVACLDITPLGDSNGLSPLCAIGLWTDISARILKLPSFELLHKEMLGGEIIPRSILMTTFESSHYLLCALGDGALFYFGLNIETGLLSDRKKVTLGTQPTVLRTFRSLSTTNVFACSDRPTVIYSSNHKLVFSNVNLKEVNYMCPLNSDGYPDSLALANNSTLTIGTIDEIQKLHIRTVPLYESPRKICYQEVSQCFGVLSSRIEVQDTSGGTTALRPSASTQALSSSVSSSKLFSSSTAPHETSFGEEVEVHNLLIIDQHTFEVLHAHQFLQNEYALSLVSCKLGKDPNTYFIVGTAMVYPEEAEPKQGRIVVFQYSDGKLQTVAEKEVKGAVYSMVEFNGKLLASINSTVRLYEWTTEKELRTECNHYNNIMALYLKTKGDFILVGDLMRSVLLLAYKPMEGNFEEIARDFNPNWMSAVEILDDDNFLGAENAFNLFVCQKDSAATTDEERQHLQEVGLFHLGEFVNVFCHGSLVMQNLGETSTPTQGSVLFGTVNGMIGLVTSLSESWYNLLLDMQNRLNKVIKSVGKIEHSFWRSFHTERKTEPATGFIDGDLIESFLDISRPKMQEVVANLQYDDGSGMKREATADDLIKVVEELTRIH
assay endpoint: DC50 (nM)
I only need the number, in nM, no unit after it.

In plain terms, COc1ccc(C(=O)N2CCC3(CCN(CCc4ccc(-c5cc6c(-c7cc(F)cc(NC(=O)c8ccc(C(C)(C)O)cc8F)c7C)ncnc6[nH]5)cc4)CC3)CC2)cc1N1CCC(=O)NC1=O [Compound 31] has a documented DC50 of 1.21

Recorded result, Cc1ccc(C(=O)N2CCC3(CCN(Cc4ccc(-c5cc6c(-c7cc(F)cc(NC(=O)c8ccc(C(C)(C)O)cc8F)c7C)ncnc6[nH]5)cc4)CC3)CC2)cc1N1CCC(=O)NC1=O [Compound 27] , DC50: 0.81

Form: compound = Cc1c(NC(=O)c2ccc(C(C)(C)O)cc2F)cc(F)cc1-c1ncnc2[nH]c(-c3ccc(CCN4CCC5(CC4)CCN(C(=O)c4cccc(N6CCC(=O)NC6=O)c4)CC5)cc3)cc12 [Compound 12] ; DC50 = 1.58

* * *

test system: TMD8 cells; assay: Resazurin cell viability (proliferation) assay in TMD8 DLBCL cells; format: cell-based; details: Homo sapiens, TMD8 cells (BTK dependent), 72 h, 50% growth inhibition vs vehicle, read-out: TMD8 Prol GI50
assay endpoint: GI50 (nM)
Give the quantity in nM, number only.

Notebook: CCOc1ccc(C(=O)N2CCC3(CCN(Cc4ccc(-c5cc6c(-c7cc(F)cc(NC(=O)c8ccc(C(C)(C)O)cc8F)c7C)ncnc6[nH]5)cc4)CC3)CC2)cc1N1CCC(=O)NC1=O , GI50 read as 1.84

Just so you know, measured GI50 for COc1ccc(C(=O)N2CCC3(CCN(Cc4ccc(-c5cc6c(-c7cc(F)cc(NC(=O)c8ccc(C(C)(C)O)cc8F)c7C)ncnc6[nH]5)cc4)CC3)C(CO)C2)cc1N1CCC(=O)NC1=O (racemic) came out at 3.89

Item: COc1ccc(C(=O)NCCN2CCC3(CC2)CCN(Cc2ccc(-c4cc5c(-c6cc(F)cc(NC(=O)c7ccc(C(C)(C)O)cc7F)c6C)ncnc5[nH]4)cc2)C3)cc1N1CCC(=O)NC1=O | GI50: 3.46

Item: COc1ccc(C(=O)N2CC3(CCN(Cc4ccc(-c5cc6c(-c7cc(F)cc(NC(=O)c8ccc(C(C)(C)O)cc8F)c7C)ncnc6[nH]5)cc4)CC3)C2)cc1N1CCC(=O)NC1=O | GI50: 6.31

Value of GI50 reported for the compound COc1ccc(C(=O)NCCCCN2CCN(Cc3ccc(-c4cc5c(-c6cc(F)cc(NC(=O)c7ccc(C(C)(C)O)cc7F)c6C)ncnc5[nH]4)cc3)CC2)cc1N1CCC(=O)NC1=O is 1.92

Lab book: GI50 of Cc1c(NC(=O)c2ccc(C(C)(C)O)cc2F)cc(F)cc1-c1ncnc2[nH]c(-c3ccc(CCN4CCC5(CC4)CCN(C(=O)c4cccc(N6CCC(=O)NC6=O)c4)CC5)cc3)cc12 noted as 0.93

What the record says about COc1ccc(C(=O)N2CCC(CCN3CCN(Cc4ccc(-c5cc6c(-c7cc(F)cc(NC(=O)c8ccc(C(C)(C)O)cc8F)c7C)ncnc6[nH]5)cc4)CC3)CC2)cc1N1CCC(=O)NC1=O : GI50 is 0.5

Entry Cc1ccc(C(=O)N2CCC(OC3CCN(Cc4ccc(-c5cc6c(-c7cc(F)cc(NC(=O)c8ccc(C(C)(C)O)cc8F)c7C)ncnc6[nH]5)cc4)CC3)CC2)cc1N1CCC(=O)NC1=O , GI50 reported as 0.66

Per the record, COc1ccc(C(=O)N2CCC(OCCN3CCC(Oc4ccc(-c5cc6c(-c7cc(F)cc(NC(=O)c8ccc(C(C)(C)O)cc8F)c7C)ncnc6[nH]5)cc4)CC3)CC2)cc1N1CCC(=O)NC1=O has GI50 of 0.56

Form: compound = COc1ccc(C(=O)N2CCN(CCN3CCN(Cc4ccc(-c5cc6c(-c7cc(F)cc(NC(=O)c8ccc(C(C)(C)O)cc8F)c7C)ncnc6[nH]5)cc4)CC3)CC2)cc1N1CCC(=O)NC1=O ; GI50 = 0.67

// GI50 value for COc1ccc(C(=O)N2CCC(OC(CO)CN3CCC(Oc4ccc(-c5cc6c(-c7cc(F)cc(NC(=O)c8ccc(C(C)(C)O)cc8F)c7C)ncnc6[nH]5)cc4)CC3)CC2)cc1N1CCC(=O)NC1=O (racemic) : 1.58

Entry under test: COc1ccc(C(=O)NCCN2CCC3(CCN(Cc4ccc(-c5cc6c(-c7cc(F)cc(NC(=O)c8ccc(C(C)(C)O)cc8F)c7C)ncnc6[nH]5)cc4)CC3)C2)cc1N1CCC(=O)NC1=O . Its GI50 was 3.14

get_value(item= COc1ccc(C(=O)N2CCC(OC3CCN(Cc4ccc(-c5cc6c(-c7cc(F)cc(NC(=O)c8ccc(C(C)(C)O)cc8F)c7C)ncnc6[nH]5)cc4)CC3)CC2)cc1N1CCC(=O)NC1=O , readout=GI50) returns 0.39

Just so you know, measured GI50 for Cc1c(NC(=O)c2ccc(C(C)(C)O)cc2F)cc(F)cc1-c1ncnc2[nH]c(-c3ccc(CCN4CCC5(CC4)CCN(C(=O)c4ccc(F)c(N6CCC(=O)NC6=O)c4)CC5)cc3)cc12 came out at 0.53

The compound listed as Cc1c(NC(=O)c2ccc(C(C)(C)O)cc2F)cc(F)cc1-c1ncnc2[nH]c(-c3ccc(CN4CCC5(CCN(CCCNC(=O)c6ccc(Cl)c(N7CCC(=O)NC7=O)c6)CC5)CC4)cc3)cc12 shows GI50 equal to 1.16

Entry COc1ccc(C(=O)N2CCC(CCN3CCC(OCc4ccc(-c5cc6c(-c7cc(F)cc(NC(=O)c8ccc(C(C)(C)O)cc8F)c7C)ncnc6[nH]5)cc4)CC3)CC2)cc1N1CCC(=O)NC1=O — recorded GI50 = 0.18

Notebook: COc1ccc(C(=O)N2CCC3(CCN(Cc4ccc(-c5cc6c(-c7cc(F)cc(NC(=O)c8ccc(C(C)(C)O)cc8F)c7C)ncnc6[nH]5)cc4)CC3)[C@H](CO)C2)cc1N1CCC(=O)NC1=O (single isomer, unassigned) , GI50 read as 2.24

GI50 reading for Cc1c(NC(=O)c2ccc(C(C)(C)O)cc2F)cc(F)cc1-c1ncnc2[nH]c(-c3ccc(CN4CCC5(CC4)CN(CCNC(=O)c4ccc(Cl)c(N6CCC(=O)NC6=O)c4)CCO5)cc3)cc12 : 1.93

Looking up Cc1ccc(C(=O)N2CCC3(CCN(Cc4ccc(-c5cc6c(-c7cc(F)cc(NC(=O)c8ccc(C(C)(C)O)cc8F)c7C)ncnc6[nH]5)cc4)CC3)CC2)cc1N1CCC(=O)NC1=O , I see its GI50 listed as 0.4
